# Tested on: MDA-MB-231 breast
# ASSAY: NCI-60 one-dose screen, 48 h (100 = growth as untreated, 0 = no growth, -100 = all killed)
# CONDITION: 10 µM unless noted
The panel holds about 83,000 compounds, 20% with a hit somewhere; the sample as a whole holds those more often.
Classification field: enter class 1 for growth values not below 60%, class 0 for values below it.

N#Cc1cc(-c2ccc3ncnc(N4CCc5cc(F)c(Cl)cc54)c3c2)cnc1N | class 0
O=c1c(-c2nc(-c3ccccc3)c(-c3ccccc3)[nH]2)coc2ccc(F)cc12 | class 1
N#C/C(=C/c1ccc([N+](=O)[O-])cc1)c1nnc(NC(=O)c2ccc(-n3c(=O)[nH]c4ccccc4c3=O)cc2)s1 | class 1
COc1ccc2c(c1)C(Sc1ccc(Br)cc1)c1c(nc(N)c(C#N)c1N)O2 (configuration not stated) | class 1
Cc1nc(N)ncc1-c1ccc2ncnc(N3CCc4cc(F)c(Cl)cc43)c2c1 | class 0
CCCCCCCCc1ccc(C(=O)Nc2ccc(C)c(OP(=O)(O)O)c2)cc1 | class 1
O=C(NN1C(=O)/C(=C/C=C/c2ccc([N+](=O)[O-])o2)SC1=S)c1ccc([N+](=O)[O-])cc1 | class 0

---

# Tested on: SR leukemia
# ASSAY: NCI-60 one-dose screen, 48 h
# CONDITION: 10 µM unless noted
This is part of a sample that, as a whole, favours compounds with a hit. Of some 83,000 tested, about 20% had one in any assay. The source made the active and inactive calls. The calls were made as follows: active = growth percent below 10; inactive = the rest.
Classes used: active, inactive

COc1ccc2[nH]cc(-c3cc4nc(-c5cn(C)c6ncc(Br)cc56)cc(N)n4n3)c2c1 | active
COc1cc2cc(C(=O)N3C[C@@H](CCl)c4c3cc(OC(=O)N(CCC(=O)N3CCN(C)CC3)C3CCCCC3)c3ccccc43)[nH]c2c(OC)c1OC | active
COc1ccc2[nH]c(O)c(N=Nc3nc(-c4ccc(Br)cc4)cs3)c2c1 | inactive
O=c1[nH]c2ccccc2cc1CSc1ccccc1Nc1nccc(-c2ccc3c(c2)OCO3)n1 | inactive

---

# Tested on: KM12 colon
# ASSAY: NCI-60 one-dose screen, 48 h (100 = growth as untreated, 0 = no growth, -100 = all killed)
# CONDITION: 10 µM unless noted
The panel holds about 83,000 compounds, 20% with a hit somewhere; the sample as a whole holds those more often.
Answer not met if growth is under 60%, and met if it is 60% or more.

OC1CCC(Cn2c(C(F)(F)F)cc3c(Cl)ncnc32)CC1 (stereo unspecified) | met
Cc1ccc(N=Nc2c(N)nn3c(-c4cc5cc(Br)ccc5oc4=O)ccnc23)cc1 | met
O=C(COc1ccc(/C=C2/C(=O)Nc3ccc(Cl)cc32)cc1)Nc1ccc(Br)cc1 | not met
CN1CCN(C(=O)CCN(C(=O)Oc2cc3c(c4ccccc24)[C@H](CCl)CN3C(=O)c2cc3cc(OCCCN4CCC4)ccc3[nH]2)[C@H]2CCSSC2)CC1 | not met
CN(C)CCCc1ccc(Nc2cnn(C)c(=O)c2Cl)cc1 | met

---

# Test system: UACC-62 melanoma
# ASSAY: NCI-60 one-dose screen, 48 h
# CONDITION: 10 µM unless noted
About 83,000 compounds went through this panel and 20% of them were active in at least one assay; those are over-represented in the sample as a whole. Calls of active or inactive are those of the source. The calls were made as follows: active = growth percent below 10; inactive = the rest.
Outcome codes: TRUE for active, FALSE for inactive

Fc1ccc(Nc2nnc(-c3c[nH]c4ccccc34)o2)cc1 | FALSE
CC1=C(C)C(=O)C(NCCN2CCOCC2)=C(Br)C1=O | FALSE
COc1cc(C2CC(c3cc(OC)c(OC)c(OC)c3)=Nc3c(N)nc(N)nc3N2)ccc1Oc1nc(Nc2ccc(F)cc2)nc(N(C)C)n1 (configuration not stated) | FALSE
O=C(CSc1nc2sc3c(c2c(=O)n1-c1ccc(Cl)cc1)CCCC3)N/N=C/C=C/c1ccccc1 | TRUE
Oc1ccc(Cl)c(Nc2ncnc3c2cnn3CC(Cl)c2ccc(Br)cc2)c1 (configuration not stated) | FALSE
Cc1nn(-c2ccccc2)c2nc(C)n(C(=O)N/N=C/c3ccccc3)c(=O)c12 | FALSE
O=C(CSc1nc2ccccc2c(=O)[nH]1)Nc1ccccc1C(=O)O | FALSE

---

# System: A498 renal
# ASSAY: NCI-60 one-dose screen, 48 h (100 = growth as untreated, 0 = no growth, -100 = all killed)
# CONDITION: 10 µM unless noted
This is part of a sample that, as a whole, favours compounds with a hit. Of some 83,000 tested, about 20% had one in any assay. Active and inactive are the calls of the source. Rule for the calls: active = growth percent below 10; inactive = the rest.
OUTCOME MEASURE: growth

CCc1ccccc1NC(=O)N/C(N)=N/c1nc2ccccc2s1 | 60.3% (inactive)
C=CC[n+]1cccc2c3ccccc3ccc21 | 48.6% (inactive)
C=CC(=O)Nc1ccc(C(=O)/C=C/c2ccc(N(C)C)cc2)c(O)c1 | 42.8% (inactive)
COc1ccc(-c2nc3ccc(-c4nnc(SCc5ccccc5)o4)cc3[nH]2)cc1OC | 117% (inactive)
Cc1ccc(S(=O)(=O)N(CCn2ccnc2[N+](=O)[O-])CCn2ccnc2[N+](=O)[O-])cc1 | 112% (inactive)
N#Cc1cc(-c2ccc3ncnc(N4CCc5cc(F)c(Cl)cc54)c3c2)cnc1N | -0.0443% (active)

---

# Tested on: K-562 leukemia
# ASSAY: NCI-60 one-dose screen, 48 h (100 = growth as untreated, 0 = no growth, -100 = all killed)
# CONDITION: 10 µM unless noted
Compounds without any hit were thinned out: in the full panel of roughly 83,000, 20% have a hit.
Catalogue of growth readings, one per entry.
OUTCOME MEASURE: growth (%)

Cc1ccc(S(=O)(=O)N(CCn2ccnc2[N+](=O)[O-])CCn2ccnc2[N+](=O)[O-])cc1 | 95.7
CCOc1ccccc1NC(=O)N/C(N)=N/c1nc2ccccc2s1 | 10.1
CC(C)(C)C(=O)c1c2c(c3ccc4c5ccccc5ccc4n13)C(=O)c1ccccc1C2=O | 103
CC(=O)Nc1ccc(S(=O)(=O)Nc2ccc(-c3ccc4c(c3)NC(=O)/C4=C\c3ccc[nH]3)cc2)cc1 | 64.8
O=C(NNC(=O)c1ccc(OCc2nc3ccc(Cl)cc3[nH]2)cc1)Nc1ccc(Cl)c(C(F)(F)F)c1 | 39.1
C[C@@H]1CN(c2ccc3ncc(C#Cc4cncc(C(=O)Nc5ccc(CN6CCN(C)CC6)c(C(F)(F)F)c5)c4)n3n2)C[C@@H](C)O1 | -28.1
CN(C)c1nc(NCCNS(=O)(=O)c2ccc(C(=O)/C=C/c3ccccc3)cc2)nc(N2CCOCC2)n1 | -15.4
Fc1ccc(F)c(CNc2nc(SCCN3CCOCC3)nc3c2cnn3CC(Cl)c2ccc(Br)cc2)c1 (centres undefined) | 10.6
Clc1ccc(CNc2nc(SCCN3CCOCC3)nc3c2cnn3CC(Cl)c2ccc(Br)cc2)cc1 (centres undefined) | 7.71
Cc1ccc(Nc2nnc(-c3c[nH]c4ccccc34)o2)c(C)c1 | 6.22
COc1ccc2[nH]cc(-c3cc4nc(-c5cn(C)c6ncc(Br)cc56)cc(N)n4n3)c2c1 | -27.4
COc1cc(/C=N/NC(=O)c2ccc(OCc3nc4ccc(Cl)cc4[nH]3)cc2)cc(OC)c1OC | 14.7
COc1ccc(-c2nc3ccccc3n2CC(=O)N=Nc2c(O)[nH]c3ccc(Br)cc23)cc1 | 35.3
CN1CCN(C(=O)Oc2cc3c(c4ccccc24)[C@H](CCl)CN3C(=O)c2cc3cc(OCCCN4CCC4)ccc3[nH]2)[C@@H]2CSSC[C@H]21 | -4.46

---

# Test system: PC-3 prostate
# ASSAY: NCI-60 one-dose screen, 48 h (100 = growth as untreated, 0 = no growth, -100 = all killed)
# CONDITION: 10 µM unless noted
The panel holds about 83,000 compounds, 20% with a hit somewhere; the sample as a whole holds those more often. The source made the active and inactive calls. The calls were made as follows: active = growth percent below 10; inactive = the rest.
# growth listing for each entry below
OUTCOME MEASURE: growth

COc1c(B(O)O)cccc1-c1nc2ccc3cn[nH]c3c2c2c1CCCC2 | 60% (inactive)
O=S(=O)(c1nc(-c2ccc(Br)cc2)oc1-c1ccc(Cl)cc1)N1CCCC(O)C1 (stereo unspecified) | 28.2% (inactive)
N#CC1=C(c2ccco2)Nc2c(c(-c3ccccc3)nn2-c2ccccc2)C12C(=O)Nc1ccc(Cl)cc12 (stereo unspecified) | -41% (active)
CC(=O)c1ccc2c(N)c(C(=O)Nc3ccc(C(F)(F)F)cc3)sc2n1 | 70.2% (inactive)
COc1cc(C2CC(c3ccc(C(F)(F)F)cc3)=Nc3c(N)nc(N)nc3N2)ccc1Oc1nc(Nc2ccc(F)cc2)nc(N(C)C)n1 (stereo unspecified) | 30.7% (inactive)
CC1=C(C(=O)Nc2ccccc2)C(c2ccc3ccccc3c2)n2c(nc3ccccc32)N1 (stereo unspecified) | 21.7% (inactive)
COc1ccc(C2=Nc3c(N)nc(N)nc3NC(c3ccc(Oc4nc(Nc5ccc(F)cc5)nc(N(C)C)n4)c(OC)c3)C2)cc1 (stereo unspecified) | 49.1% (inactive)
O=C(/C=C1\C(=O)N(Cc2ccccc2)c2ccccc21)c1cc2ccccc2oc1=O | 90.7% (inactive)
COc1ccc(-c2cc(-c3cc(OC)c(OC)c(OC)c3)[nH]c(=O)c2C#N)cc1 | 70.9% (inactive)
O=C(NN1C(=O)/C(=C/C=C/c2ccc([N+](=O)[O-])o2)SC1=S)c1ccc([N+](=O)[O-])cc1 | -72.5% (active)
CC[C@@]12CC(C(=O)OC)=C3Nc4cc5c(cc4[C@@]34CCN(C[C@H]3O[C@H]31)[C@@H]24)[C@@H]1[C@H](O5)[C@@H](O)[C@@]2(CC)CC(C(=O)OC)=C3Nc4cc(O)ccc4[C@@]34CCN1[C@@H]24 | 15.9% (inactive)
NC(=O)c1ccc(-c2ccc3ncnc(N4CCc5cc(F)c(Cl)cc54)c3c2)cn1 | 50.8% (inactive)
O=C(NC(=S)N1CCN(c2ncnc3c2cnn3-c2ccccc2)CC1)c1ccc(Br)cc1 | 64.8% (inactive)
COc1cncc(-c2ccc3ncnc(N4CCc5ccc(Cl)cc54)c3c2)c1 | 6.75% (active)
CN(C)CCOc1ccc(C(=O)C2[C@H](c3ccc(Cl)cc3)[C@@H](c3ccccc3)NC23C(=O)Nc2ccc(Cl)cc23)cc1 (stereo partly specified) | -89.9% (active)
COC(=O)CSC1=C(C)C(=O)C(OC)=C(OC)C1=O | 76.9% (inactive)
C=CC(=O)N1CCN(c2ccc3nc4c(nc3c2C(F)(F)F)C(=O)c2ncccc2C4=O)CC1 | -4.79% (active)
N#Cc1ccc(C(=O)CSc2nc3c(c(Nc4ccc(S(N)(=O)=O)cc4)n2)CCC3)cc1 | 65.3% (inactive)
COc1ccc(-c2nc3ccc(-c4nnc(SCc5ccccc5)o4)cc3[nH]2)cc1OC | 50.9% (inactive)
COc1ccc2ccccc2c1/C=C1\SC(=Nc2ccc(O)cc2)NC1=O | 21.5% (inactive)
N#Cc1ccc(C(=O)NNC(=O)CSc2nc3sc4c(c3c(=O)n2-c2ccc(Cl)cc2)CCCC4)cc1 | 67% (inactive)
COc1ccc2[nH]c(=O)c(CSc3ccccc3Nc3nccc(-c4ccc(Cl)cc4)n3)cc2c1 | 38.5% (inactive)
Cc1ccc(C(=O)Nc2cc(-n3ccnc3C)cc(C(F)(F)F)c2)cc1C#Cc1cnc2cccnn12 | 8.32% (active)
Cn1ncc2c(N)nc(Oc3ccccc3-c3ccccc3)nc21 | 58.5% (inactive)
COc1ccc(C(=O)/C=C/c2ccc3c(c2)OCCO3)cc1S(N)(=O)=O | 103% (inactive)
C=CCSc1nnc(-c2ccc(-c3nc4ccccc4[nH]3)cc2)o1 | 57.5% (inactive)
